Reported values of log10(MIC) for individual entries
system: Salmonella typhi H901 W; assay: MIC against bacteria (Table I), strain (9); type: cell-based; settings: Salmonella enterica, TYPHI
# values: log10(MIC), units µg/mL

{"Molecule": "O=C(O)C1=C(CSc2nnc(C(=O)O)s2)CS[C@@H]2[C@H](NC(=O)[C@H](NC(=O)c3cnccc3O)c3ccccc3)C(=O)N12 [Example 11]", "Numeric Result": -0.11}
{"Molecule": "CSc1ccc2c(=O)c(C(=O)N[C@@H](C(=O)N[C@@H]3C(=O)N4C(C(=O)O)=C(CSc5nnc(SCC(=O)O)s5)CS[C@H]34)c3ccccc3)c[nH]c2c1 [Example 12]", "Numeric Result": -0.72}
{"Molecule": "CC1=C(C(=O)O)N2C(=O)[C@@H](NC(=O)[C@H](N)c3ccccc3)[C@H]2SC1 [Cephalexin, reference compound]", "Numeric Result": 0.80}
{"Molecule": "COc1cc(O)ncc1C(=O)N[C@@H](C(=O)N[C@@H]1C(=O)N2C(C(=O)O)=C(CSc3nnc(SCC(=O)O)s3)CS[C@H]12)c1ccccc1 [Example 28]", "Numeric Result": 1.70}
{"Molecule": "O=C(O)CSc1nnc(SCC2=C(C(=O)O)N3C(=O)[C@@H](NC(=O)[C@H](NC(=O)c4cnccc4O)c4ccccc4)[C@H]3SC2)s1 [Example 4]", "Numeric Result": 0.19}

--- query ---
Q) System Salmonella typhi H901 W. Read-out log10(MIC). Item O=C(O)CSc1nnc(SCC2=C(C(=O)O)N3C(=O)[C@@H](NC(=O)[C@H](NC(=O)c4csccc4=O)c4ccc(O)cc4)[C@H]3SC2)s1 [Example 31] . Report value.
A) -0.41
